Recorded values, source PubChem BioAssay (NCI).

System: HT29 colon
Assay Details: NCI-60 one-dose screen, 48 h (100 = growth as untreated, 0 = no growth, -100 = all killed)
Test Settings: 10 µM
This is part of a sample that, as a whole, favours compounds with a hit. Of some 83,000 tested, about 20% had one in any assay.
Please respond with reported growth for every item in the list.
Give bare numbers, in %.

Here are 8 molecules together with their reported answers.
molecule=CC1(C)CC(OCCCC[P+](c2ccccc2)(c2ccccc2)c2ccccc2)CC(C)(C)N1O assay_result=10.6
molecule=C=C[C@]1(C)C=C2C(=O)[C@@]3(O)OC(=O)[C@@]4(CCCC(C)(C)[C@H]34)[C@@]2(O)CC1 assay_result=-2.72
molecule=C=CCc1cc(Nc2c3ccc(Cl)cc3nc3ccc(OC)cc23)cc(CN(CC)CC)c1O assay_result=3.04
molecule=CC(=O)/C(=C\c1ccc(Cl)cc1)c1ccccc1 assay_result=2.71
molecule=CCOC(=O)c1cc2c(n1Cc1cc(OC)cc(OC)c1)-c1oncc1CC2 assay_result=5.66
molecule="CN1/C(=C\\C(I)C(I)C2=[N+](C)c3ccccc3C2(C)C)C(C)(C)c2ccccc21 (stereo unspecified)" assay_result=4.84
molecule=Cc1ccc(-n2c(-c3cc4c([nH]c5ccccc54)c(-c4cccc(O)c4)n3)n[nH]c2=S)cc1 assay_result=-44
molecule="CCCCN(CCCC)c1ccc(C(=NC(C)CCCN(CC)CC)c2ccc(N(C)C)cc2)cc1 (stereo unspecified)" assay_result=-71.9

# return growth for each item in the list
1. CCCCCCCCCCCC(=O)NCCCN(C)C
2. CCOC(=O)Nc1ccc2c(c1)C(=O)N(CCOC)c1ccccc1O2
3. O=C(COCc1c(-c2ccccc2)no[n+]1[O-])Nc1nc(-c2ccc(Cl)cc2)cs1
4. COc1ccc(CCc2nc3cc(-c4c(C)noc4C)ccc3n2CCN2CCOCC2)cc1

OUT:
65.5
8.18
105
12.8

----------
Test system: OVCAR-4 ovarian
Assay Details: NCI-60 one-dose screen, 48 h (100 = growth as untreated, 0 = no growth, -100 = all killed)
Test Settings: 10 µM
Compounds without any hit were thinned out: in the full panel of roughly 83,000, 20% have a hit. Active and inactive are the calls of the source. The calls were made as follows: active = growth percent below 10; inactive = the rest.
Measured Attribute: growth

molecule=O=C1/C(=C/c2ccc([N+](=O)[O-])s2)Oc2ccc(Cl)cc21 measured_attribute=growth assay_result="-76.5% (active)"
molecule=Fc1cc(-c2ncc(-c3cc(F)c(F)c(F)c3)c(NC3CCCCCC3)n2)cc(F)c1F measured_attribute=growth assay_result="89.1% (inactive)"

# return growth for each item in the list
1. COc1ccc(-c2nsc3c2NC(=O)CC3c2cccc(Cl)c2)cc1 (stereo not given)
2. CCOc1nc(-c2ccccc2)cc2c(O)c(C(=O)NC(C)C)[nH]c(=O)c12
3. NC(=O)C1CCCN(Cc2c[nH]c3ccccc23)C1 (stereo not given)

OUT:
1. 53.2% (inactive)
2. 118% (inactive)
3. 108% (inactive)

----------
System: TK-10 renal
Assay Details: NCI-60 one-dose screen, 48 h
Test Settings: 10 µM
This is part of a sample that, as a whole, favours compounds with a hit. Of some 83,000 tested, about 20% had one in any assay. Activity calls are given as the source filed them. How the source made its calls: active means growth percent below 10; inactive means the rest.
Your response should consist of one outcome taken from Yes = active, No = inactive

IN: Hi, do you know how CCOc1nc(-c2ccccc2)cc2c(O)c(C(=O)NC(C)C)[nH]c(=O)c12 came out in this test?
OUT: No

IN: Hi, do you know how COc1ccc(COC(=O)CC(C)C)cc1 came out in this test?
OUT: No

IN: Hi, do you know how Cc1ccc(/C(CS(=O)(=O)c2ccc(C)cc2)=N\O)cc1 came out in this test?
OUT: No

----------
Test system: SNB-19 CNS
Assay Details: NCI-60 one-dose screen, 48 h
Test Settings: 10 µM
About 83,000 compounds went through this panel and 20% of them were active in at least one assay; those are over-represented in the sample as a whole. The source made the active and inactive calls. How the source made its calls: active means growth percent below 10; inactive means the rest.
Your response should consist of one outcome taken from YES for active, NO for inactive

compound=CC(=O)n1nc(C(=O)OC(C)(C)C)c2cc(F)c(F)cc21 class_name=NO
compound=O=C(O)CN1C(=O)C=CC1=O class_name=NO
compound=C[C@@H]1N=C(c2ccc(Br)cc2)Nc2nc3ccccn3c2C1=O class_name=NO
compound=COc1ccc(-c2cn[nH]c2-c2cc(OC)c(OC)c(OC)c2)cc1 class_name=NO
compound="COc1ccc(C2CC(c3ccc(-c4ccccc4)cc3)=NN2c2ccc(S(N)(=O)=O)cc2)cc1 (configuration not stated)" class_name=NO

IN: Hi, do you know how COc1cc(CSc2nc3ccc(Cl)cc3c(=O)n2Cc2ccccc2)cc(OC)c1OC came out in this test?
OUT: NO

IN: Hi, do you know how CC(C)(C)c1ccc(OCCCCCCN2CCNCC2)cc1 came out in this test?
OUT: NO

IN: Hi, do you know how Cc1ccc2oc(=O)cc(/C(=C3/C=CC=N3)c3ccc[nH]3)c2c1 came out in this test?
OUT: NO

IN: Hi, do you know how COc1cc(OC)cc(-c2ccc(-c3ccc(C(=N)N)cn3)o2)c1 came out in this test?
OUT: NO

IN: Hi, do you know how CCN(CC)CCOC(=O)c1ccc(N=Nc2ccc(O)c(OC)c2)cc1 came out in this test?
OUT: NO

IN: Hi, do you know how NC1CCC(Nc2nc(NCc3cc(Cl)ccc3O)c3ncn(C4CCCC4)c3n2)CC1 (configuration not stated) came out in this test?
OUT: YES

IN: Hi, do you know how O=[N+]([O-])c1cc2ncccc2c2ncccc12 came out in this test?
OUT: NO

IN: Hi, do you know how NC(=O)C12C(=O)NC(=O)C1(C(=O)O)C21CCCC1 (configuration not stated) came out in this test?
OUT: NO

IN: Hi, do you know how O=C(NC1CCCC1)c1ccc(N2CCC(NCc3cccc(C(F)(F)F)c3)CC2)cc1 came out in this test?
OUT: NO

IN: Hi, do you know how CC(=O)Oc1c(C)c(C)c2c(c1C)CCC(C)(CC(=O)OCCCCCCCCCCC[P+](c1ccccc1)(c1ccccc1)c1ccccc1)O2 (configuration not stated) came out in this test?
OUT: YES

IN: Hi, do you know how Cc1cc(C)c(C(=O)OC(C)CNC2CCCCC2)c(C)c1 (configuration not stated) came out in this test?
OUT: NO

IN: Hi, do you know how CCCCCC(CCC)COC(=O)c1ccc(OC)cc1 (configuration not stated) came out in this test?
OUT: NO

IN: Hi, do you know how O=C(NC1CCN(Cc2ccccc2)CC1)c1cc(-c2ccncc2)nc2ccc(Cl)cc12 came out in this test?
OUT: NO

IN: Hi, do you know how N=C(N)c1ccc(-c2ccc(-c3cccs3)s2)nc1 came out in this test?
OUT: NO

IN: Hi, do you know how O=C(O)c1cc(C(F)(F)F)cc(C(F)(F)F)c1 came out in this test?
OUT: NO

IN: Hi, do you know how O=C1/C(=C/c2ccc([N+](=O)[O-])s2)Oc2ccc(Cl)cc21 came out in this test?
OUT: YES

IN: Hi, do you know how COC(=O)CCCCCCCCC(C)c1ccc(C(C)=O)cc1 (configuration not stated) came out in this test?
OUT: NO

----------
Tested on: OVCAR-4 ovarian
Assay Details: NCI-60 one-dose screen, 48 h
Test Settings: 10 µM
The panel holds about 83,000 compounds, 20% with a hit somewhere; the sample as a whole holds those more often. Calls of active or inactive are those of the source. The calls were made as follows: active = growth percent below 10; inactive = the rest.
Your response should consist of one outcome taken from 1 (yes) for active, 0 (no) for inactive

mol=CCN1CCN(c2nc(NNC(=O)c3cccc(OC)c3)nc(N3CCN(C(c4ccccc4)c4ccccc4)CC3)n2)CC1 class_name="0 (no)"
mol=COc1ccc(Nc2nc(NCc3ccccc3)c3ccccc3n2)cc1 class_name="1 (yes)"
mol=COc1cc(Cn2c(-c3ccccc3)c(Cl)c3c2-c2oncc2CC3)cc(OC)c1 class_name="0 (no)"

IN: Hi, do you know how c1ccc(C2CCCCC2)c(OCCCCCN2CCNCC2)c1 came out in this test?
OUT: 0 (no)

IN: Hi, do you know how CCOC(=O)c1ccc(N(C=O)CCC(=O)CCl)cc1 came out in this test?
OUT: 0 (no)

----------
Test system: BT-549 breast
Assay Details: NCI-60 one-dose screen, 48 h (100 = growth as untreated, 0 = no growth, -100 = all killed)
Test Settings: 10 µM
This is part of a sample that, as a whole, favours compounds with a hit. Of some 83,000 tested, about 20% had one in any assay.
Class key for growth values: bucket A (below 50%), bucket B (50% to below 90%), bucket C (90% or more)

compound=COc1cc(-c2n/c(=C\c3c(O)[nH]c4ccccc34)cc3c2=Nc2ccccc2-3)cc(OC)c1OC tested_target="BT-549 breast" class_name="bucket A"
compound=Nc1c(C(=O)Nc2ccccc2F)sc2nc3c(cc12)C(=O)CCC3 tested_target="BT-549 breast" class_name="bucket B"
compound=COc1ccc(-c2nc(-c3nc4ccc(OC)cc4[nH]3)c3ccccn23)cc1 tested_target="BT-549 breast" class_name="bucket B"
compound=Nc1ncc(-c2ccc(C(F)(F)F)cc2)c(NC2CCCCCC2)n1 tested_target="BT-549 breast" class_name="bucket A"
compound=Cc1nc2cc(-n3c(-c4ccc(F)cc4)nc4ccccc4c3=O)ccc2n1Cc1ccccc1 tested_target="BT-549 breast" class_name="bucket A"
compound=Cc1cc(OI)c(C(C)C)cc1-c1cc(C(C)C)c(OI)cc1C tested_target="BT-549 breast" class_name="bucket C"
compound=CC(=O)[C@H]1CC[C@H]2[C@@H]3CC[C@@H]4CC=C(C=O)C[C@]4(C)[C@H]3CC[C@]12C tested_target="BT-549 breast" class_name="bucket B"
compound="CCC(O)c1ccc(Br)cc1NC(=O)c1cccc(Cl)c1 (configuration not stated)" tested_target="BT-549 breast" class_name="bucket A"
compound=Cc1ccc2c3c(cccc13)-c1ccccc1C2=O tested_target="BT-549 breast" class_name="bucket C"
compound=O=C(Nc1ccc(OS(=O)(=O)Cc2ccccc2)cc1)C12CC3CC(CC(C3)C1)C2 tested_target="BT-549 breast" class_name="bucket B"

IN: Field: class (growth) — entry: COc1ccc(CSc2nc3cc(OC)c(OC)cc3c(=O)n2-c2ccc(OC)cc2OC)cc1
OUT: bucket C

IN: Field: class (growth) — entry: COc1ccc(Cn2cc3c(c2-c2cc(OC)c(OC)c(OC)c2)CCc2cnoc2-3)cc1[N+](=O)[O-]
OUT: bucket B

IN: Field: class (growth) — entry: O=S(=O)(O)C1(O)CCCCC1
OUT: bucket C

IN: Field: class (growth) — entry: CCC1(C)OC(=O)NC1=O (configuration not stated)
OUT: bucket C

IN: Field: class (growth) — entry: COc1ccccc1S(=O)(=O)Nc1ccc2c(c1)CN(C)C(=O)N2
OUT: bucket C
